- condition description: whole bees N = 12, sampled day 5, 2 h after feeding was terminated; ± SD
Listed here are compounds together with their documented Mean concentration (ng/bee) in whole bees.
endpoint: Mean concentration (ng/bee) in whole bees

| compound | experimental result |
| --- | --- |
| C/C=C1/C[C@@H](C)[C@@](C)(O)C(=O)OC/C2=C/CN(C)CC[C@@H](OC1=O)C2=O | 7.4 |
| OCC1=C[C@@H](O)[C@@H]2C=CO[C@@H](O[C@@H]3O[C@H](CO)[C@@H](O)[C@H](O)[C@H]3O)[C@H]12 | 16400 |
| CCN1C[C@]2(COC(=O)c3ccccc3N3C(=O)C[C@H](C)C3=O)CC[C@H](OC)[C@@]34[C@@H]5C[C@H]6[C@H](OC)[C@@H]5[C@](O)(C[C@@H]6OC)[C@@](O)([C@@H](OC)[C@H]23)[C@@H]14 | 0.3 |
| N#C[C@H](O[C@@H]1O[C@H](CO[C@@H]2O[C@H](CO)[C@@H](O)[C@H](O)[C@H]2O)[C@@H](O)[C@H](O)[C@H]1O)c1ccccc1 | 238 |
| CN1[C@@H]2CC[C@H]1C[C@@H](OC(=O)C(CO)c1ccccc1)C2 (stereo partly shown) [atropine, Atropine, reference compound] | 236 |
| C=C[C@]12CN(C)[C@@H]3[C@H]4CO[C@H](C[C@H]41)[C@]1(C(=O)Nc4ccccc41)[C@@H]32 | 508 |
| CC(C)[C@]12O[C@H]1[C@@H]1O[C@]13[C@]1(O[C@H]1C[C@H]1C4=C(CC[C@@]13C)C(=O)OC4)[C@@H]2O [triptolide, Triptolide] | 4.4 |

The reported measurements were obtained from paper PMC7884015.
